target: T1, Anti-CD28 Fab (SEQ ID NOs: 696, 697); experiment: phage binding ELISA on captured anti-CD28 Fab, wells pre-incubated with CD28 antigen as competitor;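 note: crude clonal phage supernatants added to wells preloaded with CD28 antigen, bound phage read by HRP-conjugated anti-M13 antibody, control wells got blocking buffer alone without CD28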
T1 construct: In the phage ELISA the Fab was biotinylated and captured on neutravidin coated plates
T1 sequence (VH, as listed by the source, chain 1 of 2): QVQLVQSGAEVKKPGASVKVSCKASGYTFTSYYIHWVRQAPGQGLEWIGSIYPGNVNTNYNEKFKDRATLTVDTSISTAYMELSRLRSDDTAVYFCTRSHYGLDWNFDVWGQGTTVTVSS
T1 sequence (VL, as listed by the source, chain 2 of 2): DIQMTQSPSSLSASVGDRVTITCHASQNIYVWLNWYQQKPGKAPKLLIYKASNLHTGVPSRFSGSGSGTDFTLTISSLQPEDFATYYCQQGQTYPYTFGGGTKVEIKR
Measured Attribute: Anti-CD28 Fab signal in the presence of CD28
// no unit string in output, number only

Solved entries:
{"columns": ["Binder", "Observed Value"],
 "data": [
  ["YCDGHSVEYKLKCM (tested as crude clonal phage supernatant) [Phage-959]", 0.06],
  ["YCDGHELQYMAKCL (tested as crude clonal phage supernatant) [Phage-965]", 0.08],
  ["YCEGHLPLYMDKCL (tested as crude clonal phage supernatant) [Phage-962]", 0.08]
]}

Name the recorded Anti-CD28 Fab signal in the presence of CD28 of the binder listed here: YCAGHSPEYMQKCL (tested as crude clonal phage supernatant) [Phage-961]
0.08
